Origin of the recorded values: ChEMBL document CHEMBL4376876

Assay: Stability in Middlebrook 7H9 medium at 10 ug/ml after 7 days relative to control
Format: physicochemical
Settings: read-out: Stability
recorded.endpoint: remaining at 168 h, 10 ug/ml

Q: Returns the measured remaining at 168 h, 10 ug/ml for the input compound. Input: `CC/C(C)=C1\OC(=O)[C@H](C)[C@H](O)[C@H](Cc2cccnc2)NC(=O)[C@@H](NC(=O)c2ncccc2O)[C@@H](C)OC1=O`
Result: > 50%
